experimental.target: p15-EC RNH domain fragment (Human immunodeficiency virus type 1 group M subtype B, UniProt P04585, DELINS1094-1102[…])
experiment.description: NMR 1H-15N HSQC chemical shift titration, dissociation constant
Assay type: binding, HIV-1 / Escherichia coli chimera
condition.summary: read-out: Inhibitor dissociation constant, KD; residue I79 (505), no Mg2+

| compound | measure.unit | Kd |
| --- | --- | --- |
| O=C(O)c1ccc(-c2cccc(/C=N/NC(=O)c3cc(O)c(O)c(O)c3)c2)cc1 [BHMP07] | µM | 212 |
